Collected log10 EC50 values appear next to each entry.
tested on: Human betaherpesvirus 5; assay: Antiviral activity against Human cytomegalovirus Towne infected in HFF assessed as inhibition of viral replication by measuring pp28 expression at 72 hrs post-infection by luciferase assay; type: functional, organism-based; conditions: Human betaherpesvirus 5, Towne
Please interpret these as log10 of EC50 where EC50 is in nM.

Recorded log10 EC50, per entry:
{"columns": ["Smiles record", "log10 EC50"],
 "data": [
  ["C[C@H]1O[C@H](O[C@H]2[C@H](O)[C@H](O)[C@@H](O[C@H]3CC[C@@]4(C)[C@H](CC[C@@H]5[C@@H]4CC[C@]4(C)[C@@H](C6=CC(=O)OC6)CC[C@]54O)C3)O[C@@H]2C)[C@@H](O)[C@@H](O)[C@@H]1O", 2.32],
  ["C[C@H]1O[C@H](O[C@H]2CC[C@@]3(C)[C@H](CC[C@@H]4[C@@H]3CC[C@]3(C)[C@@H](C5=CC(=O)OC5)CC[C@]43O)C2)CC[C@@H]1O", 1.57],
  ["C[C@@H]1O[C@@H](O[C@@H]2[C@@H](O)[C@@H](O)[C@H](O[C@H]3CC[C@@]4(C)[C@H](CC[C@@H]5[C@@H]4CC[C@]4(C)[C@@H](C6=CC(=O)OC6)CC[C@]54O)C3)O[C@H]2C)[C@H](O)[C@H](O)[C@H]1O", 1.56],
  ["C[C@H]1O[C@H](O[C@H]2[C@H](O)[C@H](O)[C@@H](O[C@H]3[C@H](O)[C@H](O)[C@@H](O[C@H]4CC[C@@]5(C)[C@H](CC[C@@H]6[C@@H]5CC[C@]5(C)[C@@H](C7=CC(=O)OC7)CC[C@]65O)C4)O[C@@H]3C)O[C@@H]2C)[C@@H](O)[C@@H](O)[C@@H]1O", 2.51]
]}

Item: `C[C@H]1O[C@H](O[C@H]2CC[C@@]3(C)[C@H](CC[C@@H]4[C@@H]3CC[C@]3(C)[C@@H](C5=CC(=O)OC5)CC[C@]43O)C2)CC[C@@H]1O[C@@H]1CC[C@H](O[C@@H]2CC[C@H](O)[C@@H](C)O2)[C@@H](C)O1` | log10 EC50: 3.32

Documented log10 EC50 of `C[C@@H]1O[C@@H](O[C@H]2CC[C@@]3(C)[C@H](CC[C@@H]4[C@@H]3CC[C@]3(C)[C@@H](C5=CC(=O)OC5)CC[C@]43O)C2)[C@H](O)[C@H](O)[C@H]1O` : 0.68
